target-system: PolQ ATPase enzyme (1-894) (Homo sapiens (Human), UniProt O75417)
Sequence (O75417 1-894): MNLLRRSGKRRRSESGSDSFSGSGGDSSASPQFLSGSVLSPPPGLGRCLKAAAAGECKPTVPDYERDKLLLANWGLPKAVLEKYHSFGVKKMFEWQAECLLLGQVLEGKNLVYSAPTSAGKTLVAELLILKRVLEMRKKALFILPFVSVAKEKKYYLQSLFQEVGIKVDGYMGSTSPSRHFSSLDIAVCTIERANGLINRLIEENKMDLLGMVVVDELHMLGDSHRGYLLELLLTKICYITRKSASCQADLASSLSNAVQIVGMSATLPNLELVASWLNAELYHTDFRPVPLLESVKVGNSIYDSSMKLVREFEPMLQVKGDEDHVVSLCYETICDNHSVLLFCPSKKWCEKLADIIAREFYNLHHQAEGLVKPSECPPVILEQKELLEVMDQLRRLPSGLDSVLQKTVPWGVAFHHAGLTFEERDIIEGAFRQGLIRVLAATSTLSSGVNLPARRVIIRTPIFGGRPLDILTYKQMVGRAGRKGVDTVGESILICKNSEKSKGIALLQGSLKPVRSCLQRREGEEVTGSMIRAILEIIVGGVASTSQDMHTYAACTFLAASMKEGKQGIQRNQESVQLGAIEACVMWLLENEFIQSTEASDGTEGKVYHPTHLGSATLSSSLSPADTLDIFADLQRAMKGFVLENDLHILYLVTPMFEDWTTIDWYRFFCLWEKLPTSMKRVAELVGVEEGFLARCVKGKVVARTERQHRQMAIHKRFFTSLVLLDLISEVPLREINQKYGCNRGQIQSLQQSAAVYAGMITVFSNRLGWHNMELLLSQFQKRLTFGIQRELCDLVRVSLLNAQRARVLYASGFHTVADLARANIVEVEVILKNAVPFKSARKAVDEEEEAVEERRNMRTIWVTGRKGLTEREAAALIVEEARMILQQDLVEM
test-name: Polθ ATPase enzymatic assay (0.5 nM enzyme concentration), ADP-Glo
Type: biochemical
condition-context: average IC50; 0.5 nM PolQ ATPase enzyme (1-894)
The label is yes for IC50 below 2 nM and no for IC50 equal to or exceeding 2 nM.

Ask: Answer whether the compound COc1cnc(C(F)F)cc1-c1cc(-c2cn(C)cn2)ncc1C(=O)Nc1nnc(C#CC2CC2)s1 [Compound 187] has IC50 strictly less than 2 nM
Result: yes

Ask: Answer whether the compound COc1ccc(C(F)(F)F)cc1-c1cn(CC(N)=O)c(=O)cc1C(=O)Nc1nnc(C#CC2CC2)s1 [Compound 95] has IC50 strictly less than 2 nM
Result: yes

Ask: Answer whether the compound COc1cnc(C(F)F)cc1-c1cc(N2CCC(C(C)(C)C)CC2=O)ncc1C(=O)Nc1nnc(C#CC2CC2)s1 (stereo not drawn) [Compound 444] has IC50 strictly less than 2 nM
Result: yes

Ask: Answer whether the compound COc1ccc(C(F)(F)F)cc1-c1cn(CC(N)=O)c(=O)cc1C(=O)Nc1nnc(C#Cc2cc(C)[nH]n2)s1 [Compound 94] has IC50 strictly less than 2 nM
Result: yes

Ask: Answer whether the compound COc1cnc(C(F)F)cc1-c1cc(N2CC3CC3CC2=O)ncc1C(=O)Nc1nnc(C#CC2CC2)s1 (stereo not drawn) [Compound 388] has IC50 strictly less than 2 nM
Result: yes

Ask: Answer whether the compound Cc1nc(Cn2cc(-c3cc(C(F)(F)F)ccc3Cl)c(C(=O)Nc3nnc(C#CC4CC4)s3)cc2=O)cs1 [Compound 331] has IC50 strictly less than 2 nM
Result: no

Ask: Answer whether the compound Cc1ccc(Cl)cc1-c1cnccc1C(=O)Nc1nnc(C#CC2CC2)s1 [Compound 43] has IC50 strictly less than 2 nM
Result: yes

Ask: Answer whether the compound COc1cnc(C(F)F)cc1-c1cc(C2CCOCC2)ncc1C(=O)Nc1nnc(C#CC2CC2)s1 [Compound 270] has IC50 strictly less than 2 nM
Result: no

Ask: Answer whether the compound COc1cnc(C(F)F)cc1-c1cc(-c2nnc(C)o2)ccc1C(=O)Nc1nc(C#N)c(C#CC2CC2)s1 [Compound 376] has IC50 strictly less than 2 nM
Result: no

Ask: Answer whether the compound CNc1ccc(C(=O)Nc2nnc(C#CC3CC3)s2)c(-c2cc(C(F)F)ncc2OC)c1 [Compound 243] has IC50 strictly less than 2 nM
Result: no

Ask: Answer whether the compound COc1cnc(C(F)F)cc1-c1cc(NCCOCC(=O)O)ncc1C(=O)Nc1nnc(C#CC2CC2)s1 [Compound 159] has IC50 strictly less than 2 nM
Result: yes

Ask: Answer whether the compound COc1ccc(F)cc1-c1cnccc1C(=O)Nc1nnc([C@@H]2C[C@H]2c2ccc(C#N)cc2)s1 [Compound 1] has IC50 strictly less than 2 nM
Result: yes

Ask: Answer whether the compound Cc1nnc(Cn2cc(-c3cc(C(F)F)ncc3C)c(C(=O)Nc3ncc(C#CC4CC4)s3)cc2=O)o1 [Compound 126] has IC50 strictly less than 2 nM
Result: yes

Ask: Answer whether the compound COc1cnc(Cl)cc1-c1cnccc1C(=O)Nc1nnc([C@@H]2C[C@H]2c2ccc(C#N)cc2)s1 [Compound 26] has IC50 strictly less than 2 nM
Result: yes

Ask: Answer whether the compound COc1cnc(Cl)cc1-c1cc(C#CC2(O)CCOCC2)ccc1C(=O)Nc1nnc(C#CC2CC2)s1 [Compound 53] has IC50 strictly less than 2 nM
Result: yes

Ask: Answer whether the compound COc1cnc(C(F)F)cc1-c1cc(Oc2ccn(C)n2)ncc1C(=O)Nc1nnc(C#CC2CC2)s1 [Compound 175] has IC50 strictly less than 2 nM
Result: yes

Ask: Answer whether the compound COc1cnc(C(F)F)cc1-c1cc(C#CC2CCCOC2)ncc1C(=O)Nc1nnc(C#Cc2cc(C)[nH]n2)s1 (stereo not drawn) [Compound 146] has IC50 strictly less than 2 nM
Result: yes

Ask: Answer whether the compound COc1cnc(Cl)cc1-c1cc(-c2cccnn2)ccc1C(=O)Nc1nnc(C#CC2CC2)s1 [Compound 45] has IC50 strictly less than 2 nM
Result: no

Ask: Answer whether the compound COc1cnc(C(F)F)cc1-c1cc(CN2CCOCC2=O)ccc1C(=O)Nc1nnc(C#CC2CC2)s1 [Compound 227] has IC50 strictly less than 2 nM
Result: no

Ask: Answer whether the compound COc1ccc(C(F)(F)F)cc1-c1cn2ncnc2cc1C(=O)Nc1nnc(C#Cc2cc(C)[nH]n2)s1 [Compound 86] has IC50 strictly less than 2 nM
Result: yes

Ask: Answer whether the compound COc1cnc(Cl)cc1-c1cc(CC(=O)N(C)C)ccc1C(=O)Nc1nnc(C#CC2CC2)s1 [Compound 35] has IC50 strictly less than 2 nM
Result: yes

Ask: Answer whether the compound COc1cnc(C(F)F)cc1-c1cc(OC[C@H]2CCOC2)ncc1C(=O)Nc1nnc(C#CC2CC2)s1 [Compound 149] has IC50 strictly less than 2 nM
Result: yes

Ask: Answer whether the compound COc1cnc(C(F)F)cc1-c1cc(C#CC(C)(C)C#N)ncc1C(=O)Nc1nnc(C#CC2CC2)s1 [Compound 184] has IC50 strictly less than 2 nM
Result: yes

Ask: Answer whether the compound COc1ccc(C(F)F)cc1-c1cn(C)c(=O)cc1C(=O)Nc1nnc(C#CC2CC23CC3)s1 (stereo not drawn) [Compound 42] has IC50 strictly less than 2 nM
Result: yes

Ask: Answer whether the compound COc1cnc(C(F)(F)F)nc1-c1cnccc1C(=O)Nc1nnc(C#CC2CC2)s1 [Compound 338] has IC50 strictly less than 2 nM
Result: no

Ask: Answer whether the compound O=C(Nc1nnc(C#CC2CC2)s1)c1cc(=O)n(Cc2nccs2)cc1-c1cc(C(F)(F)F)ccc1Cl [Compound 65] has IC50 strictly less than 2 nM
Result: no

Ask: Answer whether the compound COc1ccc(F)cc1-c1cn(C)c(=O)cc1C(=O)Nc1nnc(C#Cc2cc(C)[nH]n2)s1 [Compound 17] has IC50 strictly less than 2 nM
Result: no

Ask: Answer whether the compound COc1cnc(C(F)F)cc1-c1cc(CC(=O)N(C)C)ccc1C(=O)Nc1nnc(C#CC2CC2)s1 [Compound 265] has IC50 strictly less than 2 nM
Result: yes

Ask: Answer whether the compound COc1ccc(C(F)(F)F)cc1-c1cc(-c2ccn(C)n2)ncc1C(=O)Nc1nnc(C#CC2CC2)s1 [Compound 308] has IC50 strictly less than 2 nM
Result: yes

Ask: Answer whether the compound COc1cnc(C(F)F)cc1-c1cc(-n2cccc(Cl)c2=O)ncc1C(=O)Nc1nnc(C#CC2CC2)s1 [Compound 455] has IC50 strictly less than 2 nM
Result: yes
